# experiment-notes: in vitro
# Set-up: species or system HB2, HEK293
# applied-conditions: human, ccd841 cells
Catalogue of molecules with associated viability at 48 h, 10 µM

[
  {
    "molecule": "O=C(CCl)N1CCOCC1C1CC1 (stereo not drawn) [PCM-0102870]",
    "unit-string": "%",
    "viability at 48 h, 10 µM": 89.5
  },
  {
    "molecule": "COc1cc(=O)[nH]c(NC(=O)CCl)n1 [PCM-0102873]",
    "unit-string": "%",
    "viability at 48 h, 10 µM": 100
  },
  {
    "molecule": "C=CC(=O)N1CCN(C(=O)Cc2c(C)noc2C)CC1 [PCM-0102531]",
    "unit-string": "%",
    "viability at 48 h, 10 µM": 106
  },
  {
    "molecule": "O=C(CCl)Nc1ccc(Cl)cc1 [PCM-0102120]",
    "unit-string": "%",
    "viability at 48 h, 10 µM": 55.2
  },
  {
    "molecule": "O=C(CCl)Nc1cc2ccccc2cc1C(=O)O [PCM-0102311]",
    "unit-string": "%",
    "viability at 48 h, 10 µM": 100
  },
  {
    "molecule": "COC(=O)C1Cc2ccccc2CN1C(=O)CCl (stereo not drawn) [PCM-0102841]",
    "unit-string": "%",
    "viability at 48 h, 10 µM": 77.3
  }
]

###

Catalogue of compounds with associated NUDT7
# assayed-target: NUDT7 (Homo sapiens, UniProt P0C024)
# Construct: residues 14-235, E. coli, pNIC28-Bsa4, N-terminal His6 tag removed by TEV, construct 26672 Da
# Sequence (P0C024 14-235): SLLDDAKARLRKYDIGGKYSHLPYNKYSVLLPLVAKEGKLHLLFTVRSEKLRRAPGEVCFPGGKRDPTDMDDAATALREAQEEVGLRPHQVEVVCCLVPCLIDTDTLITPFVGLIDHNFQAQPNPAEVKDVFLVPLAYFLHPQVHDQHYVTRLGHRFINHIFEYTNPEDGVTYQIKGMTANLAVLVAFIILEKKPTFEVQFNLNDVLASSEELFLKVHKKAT
# Parameters: Intact protein LC/MS covalent labelling, fragments in pools of five, 200 uM each, 4 °C
# applied-conditions: 24 h, 4 °C, pool of five; 200 µM; covalent

[
  {
    "compound": "C=CC(=O)Nc1ccc(C)cn1 [PCM-0102627]",
    "NUDT7": 0
  },
  {
    "compound": "O=C(CCl)Nc1cc([N+](=O)[O-])ccc1F [PCM-0102544]",
    "NUDT7": 0
  },
  {
    "compound": "O=C(CCl)Nc1cccc(F)c1 [PCM-0102364]",
    "NUDT7": 0.09
  },
  {
    "compound": "O=C(CCl)NC12CC3CC(CC(C3)C1)C2 [PCM-0102118]",
    "NUDT7": 0
  },
  {
    "compound": "O=C(CCl)N1CC=C(c2ccccc2)CC1 [PCM-0103038]",
    "NUDT7": 0
  },
  {
    "compound": "C=CC(=O)NCC1(O)CCS(=O)(=O)CC1 [PCM-0102691]",
    "NUDT7": 0
  },
  {
    "compound": "CN(CC(=O)N1CCOCC1)C(=O)CCl [PCM-0102743]",
    "NUDT7": 0
  },
  {
    "compound": "C=CC(=O)NCC1CCCS1 (centres unmarked) [PCM-0102719]",
    "NUDT7": 0
  },
  {
    "compound": "NC(=O)C1CCCCN1C(=O)CCl (centres unmarked) [PCM-0102203]",
    "NUDT7": 0
  },
  {
    "compound": "C=CC(=O)N1CC(O)CC1c1ccccc1C(F)(F)F (centres unmarked) [PCM-0102677]",
    "NUDT7": 0
  },
  {
    "compound": "C=CC(=O)N(C)CC1CCn2ccnc2C1 (centres unmarked) [PCM-0102752]",
    "NUDT7": 0
  },
  {
    "compound": "O=C(CCl)Nc1cc(Cl)ccc1C(=O)O [PCM-0102412]",
    "NUDT7": 0.16
  },
  {
    "compound": "C=CC(=O)NCC1CCN(C)c2ccccc21 (centres unmarked) [PCM-0102644]",
    "NUDT7": 0
  },
  {
    "compound": "O=C(CCl)Nc1cc(Cl)ccc1-n1cncn1 [PCM-0102258]",
    "NUDT7": 0.21
  },
  {
    "compound": "C=CC(=O)NC(=O)Nc1ccccc1 [PCM-0102883]",
    "NUDT7": 0
  },
  {
    "compound": "C=CC(=O)Nc1cccc(C(F)(F)F)c1 [PCM-0102573]",
    "NUDT7": 0
  },
  {
    "compound": "CCc1nnc(NC(=O)CCl)s1 [PCM-0102166]",
    "NUDT7": 0.21
  },
  {
    "compound": "CC(NC(=O)CCl)c1ccc(Cl)cc1 (centres unmarked) [PCM-0102334]",
    "NUDT7": 0
  },
  {
    "compound": "Cc1ccc(N(C(=O)CCl)C2C=CS(=O)(=O)C2)cc1 (centres unmarked) [PCM-0102539]",
    "NUDT7": 0.33
  },
  {
    "compound": "C=CC(=O)NC(C)C(=O)N1CCc2ccccc21 (centres unmarked) [PCM-0102486]",
    "NUDT7": 0
  },
  {
    "compound": "C=CC(=O)Nc1ccc(Br)cc1 [PCM-0102191]",
    "NUDT7": 0.09
  },
  {
    "compound": "C=CC(=O)Nc1cccc(Br)c1 [PCM-0102667]",
    "NUDT7": 0.08
  },
  {
    "compound": "Cl.O=C(CCl)N1CCN(Cc2ccccc2F)CC1 [PCM-0102387]",
    "NUDT7": 0
  },
  {
    "compound": "Cl.O=C(CCl)N1CCN(Cc2ccc(Cl)cc2)CC1 [PCM-0102818]",
    "NUDT7": 0
  },
  {
    "compound": "CC(c1ccccc1)N(C)C(=O)CCl (centres unmarked) [PCM-0102478]",
    "NUDT7": 0.1
  },
  {
    "compound": "O=C(CCl)NCc1cccc(F)c1 [PCM-0103047]",
    "NUDT7": 0
  },
  {
    "compound": "C=CC(=O)N1CCNC(=O)C1c1c(F)cccc1Cl (centres unmarked) [PCM-0102490]",
    "NUDT7": 0
  },
  {
    "compound": "C=CC(=O)N1CCCC(c2nc3c(s2)CCCC3)C1 (centres unmarked) [PCM-0103069]",
    "NUDT7": 0
  },
  {
    "compound": "O=C(CCl)Nc1ccc2c(c1)OC1(CCCC1)O2 [PCM-0102801]",
    "NUDT7": 0.1
  },
  {
    "compound": "O=C(CCl)NC(=O)Nc1ccc2c(c1)OCO2 [PCM-0102333]",
    "NUDT7": 0.29
  },
  {
    "compound": "Cc1cc(C)cc(NC(=O)CCl)c1 [PCM-0102394]",
    "NUDT7": 0
  },
  {
    "compound": "C=CC(=O)Nc1ccccc1[N+](=O)[O-] [PCM-0102742]",
    "NUDT7": 0.41
  },
  {
    "compound": "C=CCNC(=O)NC(=O)CCl [PCM-0102709]",
    "NUDT7": 0
  },
  {
    "compound": "CSc1ccc(NC(=O)CCl)cc1 [PCM-0102772]",
    "NUDT7": 0.13
  },
  {
    "compound": "O=C(CCl)Nc1nnc(-c2ccccc2)o1 [PCM-0102458]",
    "NUDT7": 0
  },
  {
    "compound": "O=C(CCl)Nc1ccon1 [PCM-0103077]",
    "NUDT7": 0
  },
  {
    "compound": "Cc1ccc(NC(=O)CCl)cc1Br [PCM-0102955]",
    "NUDT7": 0.27
  },
  {
    "compound": "O=C(CCl)N1CCN(Cc2ccc3c(c2)OCCO3)CC1 [PCM-0102386]",
    "NUDT7": 0
  },
  {
    "compound": "CC(NC(=O)CCl)c1ccc(Br)cc1 (centres unmarked) [PCM-0102374]",
    "NUDT7": 0.23
  },
  {
    "compound": "O=C(CCl)NCc1ccccc1 [PCM-0102538]",
    "NUDT7": 0
  },
  {
    "compound": "Cl.O=C(CCl)N1CCN(Cc2ccc3c(c2)CCO3)CC1 [PCM-0102814]",
    "NUDT7": 0
  },
  {
    "compound": "CCN(C(=O)CCl)C1CCS(=O)(=O)C1 (centres unmarked) [PCM-0102105]",
    "NUDT7": 0
  },
  {
    "compound": "C=CC(=O)NC1CNC(=O)C1 (centres unmarked) [PCM-0102882]",
    "NUDT7": 0
  },
  {
    "compound": "C=CC(=O)N1CCCC1C1COCCC1(C)O (centres unmarked) [PCM-0102571]",
    "NUDT7": 0
  },
  {
    "compound": "C#Cc1cccc(NC(=O)CCl)c1 [PCM-0102735]",
    "NUDT7": 0
  },
  {
    "compound": "CN(C(=O)CCl)C1=CCCC1 [PCM-0102869]",
    "NUDT7": 0
  },
  {
    "compound": "Cc1ccccc1C(C)NC(=O)CCl (centres unmarked) [PCM-0102390]",
    "NUDT7": 0.1
  }
]
